# run.description: Cellular Toxicity (caspase-3) N2a (AID 665);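 note: compound exposure lasted 16 h at 37 °C before readout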
# study.conditions: N2a cells, luminescence, normalized: DMSO 0%, 10 µM staurosporine 100%; series mostly up to 92.2 µM
Activity calls are given as the source filed them. Calls come from the whole dose curve; as a rule, active = well fitted activation curve with a large enough effect; inconclusive = small, poorly fitted or top-dose-only effect; inactive = flat fitted curve, though single readings scatter.
reported.metric: outcome

Solved cases (10 shown):
INSERT INTO assay_data (molecule, reported_metric, result) VALUES
  ('OCc1c[nH]c2ccccc12', 'outcome', 'inactive'),
  ('CC(C)C(C)(C)C(C)(C)C(C)(C)S', 'outcome', 'inactive'),
  ('c1ccc2occc2c1', 'outcome', 'inactive'),
  ('Cc1cc(C(C)(C)C)c(O)c(C(C)(C)C)c1', 'outcome', 'inactive'),
  ('Brc1ccccc1-c1ccccc1', 'outcome', 'inactive'),
  ('CCCCC(CC)COC(=O)c1ccccc1C(=O)O (stereo unspecified)', 'outcome', 'inactive'),
  ('COc1cc(C=O)ccc1O', 'outcome', 'inactive'),
  ('CCCC(=O)c1cc(O)c(O)cc1O', 'outcome', 'inactive'),
  ('O=C(Oc1ccccc1)c1ccccc1O', 'outcome', 'inactive'),
  ('CC(=O)OC/C=C(C)/C=C/C=C(C)/C=C/C1=C(C)CCCC1(C)C', 'outcome', 'inactive');

Next molecule, please.
Q: Report outcome for Nc1cccc2c(N)cccc12 please.
A: inactive
